# Format: in vivo, human
# protocol.conditions: human, plasma, po, 5 mg
endpoint.name: Tmax (h)
Give bare numbers, in h.

Form: molecule = CNC(=O)c1c(C)oc2cc(Oc3ncnc4cc(OC)c(OC)cc34)ccc12 [Fruquintinib] ; Tmax = 4

----------
# test.method.notes: pKa
# Assay type: physicochemical
endpoint.name: pKa
One number for each entry.

pKa reported for this compound "CNC(=O)c1c(C)oc2cc(Oc3ncnc4cc(OC)c(OC)cc34)ccc12" : 2.78

----------
# test.method.notes: In vitro aqueous solubility in buffer systems across pH 1 to 6.8
# Type: physicochemical
# protocol.conditions: 37 °C, pH 4.5, aqueous buffer, thermodynamic from solid
endpoint.name: solubility at 48 h (µg/mL)
One number for each entry, in µg/mL.

Documented solubility at 48 h of "CNC(=O)c1c(C)oc2cc(Oc3ncnc4cc(OC)c(OC)cc34)ccc12" : 0.9

----------
# test.method.notes: In vitro aqueous solubility in buffer systems across pH 1 to 6.8
# Format: physicochemical
# protocol.conditions: 37 °C, pH 6.8, aqueous buffer, thermodynamic from solid
endpoint.name: solubility at 48 h

Sample "CNC(=O)c1c(C)oc2cc(Oc3ncnc4cc(OC)c(OC)cc34)ccc12" ; solubility at 48 h observed: 0.9 µg/mL

----------
# Format: in vivo, human
# protocol.conditions: human, plasma, oral
endpoint.name: Tmax (min)
One number for each entry, in min.

Record "CNC(=O)c1c(C)oc2cc(Oc3ncnc4cc(OC)c(OC)cc34)ccc12" . Reported Tmax: 30

----------
# test.method.notes: In vitro aqueous solubility in buffer systems across pH 1 to 6.8
# Type: physicochemical
# protocol.conditions: 37 °C, pH 1, simulated gastric fluid, thermodynamic from solid
endpoint.name: solubility at 48 h (µg/mL)
Give bare numbers, in µg/mL.

The molecule listed as "CNC(=O)c1c(C)oc2cc(Oc3ncnc4cc(OC)c(OC)cc34)ccc12" shows solubility at 48 h equal to 130

Values were extracted from paper PMC11903327.
